Values from patent US20120276102A1

- system tested: human IL-21R expressed on cells (human, UniProt Q9HBE5 20-538)
- Sequence (Q9HBE5 20-538 limits assumed): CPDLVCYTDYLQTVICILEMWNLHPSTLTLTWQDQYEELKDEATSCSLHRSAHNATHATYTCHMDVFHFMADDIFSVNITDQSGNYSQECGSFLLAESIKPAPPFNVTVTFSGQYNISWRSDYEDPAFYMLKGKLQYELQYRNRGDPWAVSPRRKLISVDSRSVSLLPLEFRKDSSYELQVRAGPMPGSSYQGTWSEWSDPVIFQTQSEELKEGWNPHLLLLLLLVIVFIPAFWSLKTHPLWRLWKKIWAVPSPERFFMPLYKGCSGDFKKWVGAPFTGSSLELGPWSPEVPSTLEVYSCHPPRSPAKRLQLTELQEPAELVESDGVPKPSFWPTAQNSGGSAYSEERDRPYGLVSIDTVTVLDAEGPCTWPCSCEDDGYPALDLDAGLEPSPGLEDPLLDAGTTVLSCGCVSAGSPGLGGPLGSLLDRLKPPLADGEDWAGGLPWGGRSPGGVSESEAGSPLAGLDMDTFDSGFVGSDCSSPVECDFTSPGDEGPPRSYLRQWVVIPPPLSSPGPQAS
- assay notes: cell-based or functional assay
Listed binders paired with reported Neutralization of B cell proliferation IC50
Numbers only; they are read as nM.

Solved entries (count: 3):
{"binder": "parental 18A5 antibody (antibody, V domains shown, also called 18A5 IgG) VH: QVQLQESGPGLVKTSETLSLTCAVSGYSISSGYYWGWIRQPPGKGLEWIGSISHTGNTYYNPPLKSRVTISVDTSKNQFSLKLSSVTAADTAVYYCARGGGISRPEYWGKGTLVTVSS VL: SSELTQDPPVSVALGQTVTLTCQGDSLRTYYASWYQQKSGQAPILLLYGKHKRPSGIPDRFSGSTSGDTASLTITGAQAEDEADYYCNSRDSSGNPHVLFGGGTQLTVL", "unit spec": "nM", "recorded value": 1.86}
{"binder": "AbT (antibody, human IgG1, V domains shown, CDR3 graft, residue limits derived as for m29; also called VHP/VL9; VHPTM/VL9) VH: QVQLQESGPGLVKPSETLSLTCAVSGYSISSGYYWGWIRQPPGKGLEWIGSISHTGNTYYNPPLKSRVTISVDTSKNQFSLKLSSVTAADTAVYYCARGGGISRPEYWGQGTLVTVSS VL: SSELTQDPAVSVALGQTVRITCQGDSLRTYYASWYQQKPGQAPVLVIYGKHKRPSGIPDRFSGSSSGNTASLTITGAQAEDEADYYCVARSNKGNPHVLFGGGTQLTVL", "unit spec": "nM", "recorded value": 0.14}
{"binder": "AbU (antibody, human IgG1, V domains shown, CDR3 graft, residue limits derived as for m29; also called VHP/VL25; VHPTM/VL25) VH: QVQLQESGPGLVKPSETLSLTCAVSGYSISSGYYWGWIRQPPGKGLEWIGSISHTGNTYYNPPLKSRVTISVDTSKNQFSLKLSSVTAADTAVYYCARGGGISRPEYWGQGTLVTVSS VL: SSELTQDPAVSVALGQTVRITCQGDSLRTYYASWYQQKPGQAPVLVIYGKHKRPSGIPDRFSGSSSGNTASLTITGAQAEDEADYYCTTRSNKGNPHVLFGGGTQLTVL", "unit spec": "nM", "recorded value": 0.13}

Moving on to the next binder.
Tell me Neutralization of B cell proliferation IC50 reported for AbR (antibody, human IgG1, V domains shown, CDR3 graft, residue limits derived as for m29; also called VH3/VL18; VH3DM/VL18) VH: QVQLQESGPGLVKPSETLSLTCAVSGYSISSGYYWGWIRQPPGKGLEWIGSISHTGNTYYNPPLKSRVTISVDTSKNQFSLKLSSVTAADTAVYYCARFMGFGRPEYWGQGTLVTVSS VL: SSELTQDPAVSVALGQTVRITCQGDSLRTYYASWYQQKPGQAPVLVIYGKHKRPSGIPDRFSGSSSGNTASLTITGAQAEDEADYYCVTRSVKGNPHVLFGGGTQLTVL
0.22
